test: Cytotoxicity against human MCF7 cells assessed as cell survival at 10 uM after 48 hrs by MTT assay relative to control; type: cell-based; conditions: read-out: Survival
Field: viability at 48 h, 10 µM. Provide a value for each of the compounds that follow.
Give bare numbers, in %.

Solved cases below.
{"Compound Smiles": "C=C1[C@H](OC(=O)C(C)C)[C@@H](OC(C)=O)[C@@H](OC(C)=O)C(C)(C)/C=C/[C@H](C)[C@H](OC(=O)c2ccccc2)[C@@]2(O)C[C@@](C)(OC(C)=O)[C@H](OC(C)=O)[C@@H]2[C@H]1OC(=O)C(C)C", "Unit Symbol": "%", "Numeric Readout": 94.3}
{"Compound Smiles": "C=C1[C@H](OC(=O)CC)[C@@H](OC(C)=O)[C@@H](OC(C)=O)C(C)(C)/C=C/[C@H](C)[C@H](OC(=O)c2ccccc2)[C@@]2(O)C[C@@](C)(OC(C)=O)[C@H](OC(C)=O)[C@@H]2[C@H]1OC(=O)C(C)C", "Unit Symbol": "%", "Numeric Readout": 83.3}
{"Compound Smiles": "C=C1CCC(=O)C(C)(C)/C=C/[C@H](C)C(=O)[C@@]2(OC(C)=O)C[C@H](C)[C@H](O)[C@@H]2[C@H]1OC(=O)c1ccccc1", "Unit Symbol": "%", "Numeric Readout": 95.6}
{"Compound Smiles": "C=C1[C@H](OC(C)=O)[C@H]2[C@@H](OC(C)=O)[C@@H](C)C[C@]2(OC(C)=O)C(=O)[C@@H](C)/C=C/C(C)(C)C(=O)[C@H](OC(C)=O)[C@H]1OC(=O)C(C)C", "Unit Symbol": "%", "Numeric Readout": 91.9}

Form field: reported viability at 48 h, 10 µM of CC(=O)O[C@H]1[C@@H](OC(C)=O)C(C)(C)/C=C/[C@H](C)[C@H](OC(C)=O)[C@@]2(O)C[C@@](C)(OC(C)=O)[C@H](O)[C@@H]2[C@H]2OC(=O)CC[C@@]2(OC(=O)c2ccccc2)[C@@H]1OC(=O)C(C)C
98.5
